Test system: CEM cells HIV-1 protection, formazan growth assay
Experiment: NCI AIDS Antiviral Assay
Procedure: The ability of compounds to protect human CEM cells from HIV-1 infection is measured as a screen for new compounds capable of inhibiting the HIV virus. Five concentrations of drug were tested on uninfected and infected cells and cell growth was measured using a soluble formazan assay. […] Compounds that provided at least 50% protection were retested. Compounds that provided at least 50% protection on retest were listed as moderately active. […]
Quantity Measured: EC50

Q: Hello, please tell me recorded EC50 for this one: `CCOC(=O)CCNC(=O)c1cc(C)cc2c1Oc1c(cc(C)cc1C(=O)NCCC(=O)OCC)S2`
A: > 200 µM

Q: Recall and state the measured EC50 for `OC1(C2(O)c3ccccc3-c3ccccc32)c2ccccc2-c2ccccc21` .
A: > 72.4 µM

Q: Note down EC50 recorded for COC(=O)c1cc(C(=CCC[C@H]2CC[C@@]3(C)C(CCC4C3CC[C@@]3(C)C4CC[C@@H]3C(C)CCCC(C)C)C2)c2cc(Cl)c(O)c(C(=O)OC)c2)cc(Cl)c1O (some centres undefined)
A: > 200 µM

Q: Kindly indicate its recorded EC50. Item: COC(=O)C(Cc1ccccc1I)C1=CCC2(CC1)OCCO2 (centres undefined)
A: > 200 µM

====

test system: CEM cells HIV-1 protection, formazan growth assay; experiment: NCI AIDS Antiviral Assay
Give measured EC50 for each item. Keep answers brief.

Q: Find the measured EC50 of COC(=O)C(N)C(C)c1c[nH]c2ccccc12 (stereo unspecified) and report it.
A: > 200 µM

Q: State its EC50 for this compound: `CCCCCC(=O)c1ccc2[nH]c3c(C)cc([N+](=O)[O-])c(C)c3c2c1`
A: > 4.27 µM

Q: Name the recorded EC50 of the compound listed here: `CC(=O)N[C@]1(C)CCC2C[C@H]1C(C)=NC2(C)C`
A: > 1050 µM

Q: Consider the compound CC(C)(C)C1(C#N)C(=O)N(c2ccc(N3C(=O)C(C#N)(C(C)(C)C)C34c3ccccc3-c3ccccc34)cc2)C12c1ccccc1-c1ccccc12 (stereo unspecified) and give its recorded EC50.
A: > 372 µM

Q: Retrieve EC50 measured for O=NC1C(Cl)C2CC1C1COCC21 (stereo unspecified) and print it.
A: > 1230 µM

Q: Answer with the recorded EC50 of CCOC(=O)CN=C1Nc2ccccc2C(=O)N2CSCC12 (stereo unspecified) only.
A: > 200 µM

Q: Give reported EC50 value for `Cc1cc(N(CCC#N)CCC#N)ccc1/C=C1/N=C(c2ccccc2)N(N)C1=O`
A: > 63.1 µM

Q: Report EC50 for O=C(O)CC1OC(=O)C(Br)=C1O (stereo unspecified)
A: > 1050 µM

Q: Tell me EC50 reported for O=C1CCCCC(=O)OC2(CCCCC2=O)CC1 (stereo unspecified)
A: > 200 µM

Q: Identify EC50 associated with the compound CC12C(=O)OC(=O)C1(C)C1C=CC2O1 (stereo unspecified)
A: > 200 µM

Q: Fill in reported EC50 for this entry: O=S(=O)(O)C(O)CC=C(C(O)S(=O)(=O)O)C(O)S(=O)(=O)O (stereo unspecified)
A: > 200 µM

====

System: CEM cells HIV-1 protection, formazan growth assay
Test: NCI AIDS Antiviral Assay;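 active = compounds giving half or more protection of infected cells from virus-caused growth loss, again on retest; inactive = the rest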
Procedure: The ability of compounds to protect human CEM cells from HIV-1 infection is measured as a screen for new compounds capable of inhibiting the HIV virus. Five concentrations of drug were tested on uninfected and infected cells and cell growth was measured using a soluble formazan assay. […] Compounds that provided at least 50% protection were retested. Compounds that provided at least 50% protection on retest were listed as moderately active. […]
Respond with a class label; see active, inactive

Q: Each molecule tested received a call. Report the one for CC12C3CC4C5CC(C(C53)[C@@H]1NCc1ccccc1)C42 (stereo not given in full) .
A: inactive

Q: Record request — test call for CC1(C(=O)O)OC12CCCCC2 (stereo not given)
A: inactive

Q: # lookup: test call for CN1C2C=CC(=O)C1C1C(=O)N(c3ccccc3)C(=O)C12 (stereo not given)
A: inactive

Q: // param item: `CC1(C)NC(=S)NC1=O` ; yields the recorded call
A: inactive

Q: Per the records of this test, what outcome belongs to `O=S(=O)(O)C(I)S(=O)(=O)O` ?
A: inactive

Q: What was the test verdict on `O=C(/N=C/c1c(O)c2ccccc2oc1=O)NC1CCCCC1` ?
A: inactive

Q: Write down the call the test reported for this molecule. Item: Cc1cccc(N=NC2Sc3nc4ccccc4n3C2=O)c1 (stereo not given)
A: inactive

Q: # fetch the recorded call for CCCCCCC(=O)COP(=O)(OCC(=O)CCCCCC)OCC1OC(n2cc(C)c(=O)[nH]c2=O)CC1N=[N+]=[N-] (stereo not given) here
A: active

Q: Identify the outcome logged in this assay for the molecule shown: CC(C)CC(NC(=O)C(Cc1ccccc1)NC(=O)CNC(=O)CNC(=O)C(N)Cc1ccc(O)cc1)C(=O)NC1C(O)OC(CO)C(O)C1O (stereo not given)
A: inactive

Q: Which outcome was entered for the molecule `CSC1=Nc2ccccc2N=C(c2ccccc2)C1` in this test?
A: inactive

Q: Record lookup: outcome of this test for `O=C(C[n+]1ccncc1)c1ccc2c(c1)CCCC2` ?
A: inactive

Q: How was O=C(Nc1ccc([N+](=O)[O-])cc1)C1C(=O)C(=O)N(c2ccc([N+](=O)[O-])cc2)C1=O (stereo not given) classified in this test?
A: inactive

Q: Please indicate how the test categorized `COc1cc(CO)c(CC(=O)NCCCc2ccccc2)cc1OC` .
A: inactive

Q: Recorded call for COC(=O)c1cc(=O)nc2n1C1OC(CO)C(O)C1O2 (stereo not given) ?
A: inactive

Q: What did the test return for COC(=O)C1C(=O)C(C(=O)OC)C23C(C)CCC12C(C(=O)OC)C(=O)C3C(=O)OC (stereo not given) ?
A: inactive

Q: What outcome does the record of this test show for OCC(O)C(Cl)CCl (stereo not given) ?
A: inactive

Q: What classification did `O=c1oc2ccccc2c(O)c1C(c1ccc(OCc2ccccc2)cc1)c1c(O)c2ccccc2oc1=O` end up with in this test?
A: inactive

Q: Assay result, entry C[N+](C)(C)CC1CCC/C1=N\OC(=O)c1ccccc1 (stereo not given) — outcome?
A: inactive

Q: Test call, this molecule: CN1CN(c2ccccc2)C2(CCN(CCC3COc4ccccc4O3)CC2)C1=O (stereo not given)
A: inactive

Q: Kindly provide the recorded test outcome for the following molecule: O=C1c2cc(Cl)ccc2-n2cnnc2C2CSCN12 (stereo not given)
A: inactive

Q: So what was the verdict on CC(C)CCCC(C)[C@H]1CC[C@@H]2[C@H]3CC[C@H]4C[C@@H](CCC=C(c5cc(Cl)c(OCc6ccccc6[N+](=O)[O-])c(C(=O)OCc6ccccc6[N+](=O)[O-])c5)c5cc(Cl)c(OCc6ccccc6[N+](=O)[O-])c(C(=O)OCc6ccccc6[N+](=O)[O-])c5)CC[C@]4(C)[C@@H]3CC[C@]12C (stereo not given in full) in this test?
A: inactive

Q: Record lookup: outcome of this test for `Nc1nc2c(c(-c3cccc(Cl)c3)n1)COC/C2=C\c1cccc(Cl)c1` ?
A: inactive

Q: Which outcome did this test record for the molecule Cc1cc2c(c3oc(=O)cc(C)c13)[C@@H](OC(=O)C13CCC(C)(C(=O)O1)C3(C)C)[C@@H](OC(=O)C13CCC(C)(C(=O)O1)C3(C)C)C(C)(C)O2 (stereo not given in full) ?
A: active

Q: Dear colleague, could you share the recorded outcome for `COc1ccc(-c2nc(N)c(C#N)c3c2CCS(=O)(=O)c2ccc(C)cc2-3)cc1OC` when you have a moment?
A: inactive

Q: For `COc1ccc2c(-c3ccc(O)cc3)c(Oc3ccc(Cl)cc3)c(=O)oc2c1` , what call appears in the results of this test?
A: inactive

Q: Hi, sorry to bother you, what did the test record for `N#C/C(=C(\c1ccccc1)c1ccccn1)c1ccccc1` ?
A: inactive

Q: Recorded test call requested for CC1CC12OC(=O)N(c1cc(Cl)cc(Cl)c1)C2=O (stereo not given)
A: inactive

Q: Any idea what this test logged for O=C(CN1CCCCC1)N1CCc2c([nH]c3ccccc23)C1c1cccnc1 (stereo not given) ?
A: inactive

Q: Which outcome was entered for the molecule `N=c1oc2ccc3ccccc3c2cc1C(N)=S` in this test?
A: inactive

Q: Called result for `CC(=Nc1c2ccccc2nc2ccccc12)N(C)C`
A: inactive

Q: Any idea what this test logged for CC1(O)/C(=N/O)CC2CC1C2(C)C (stereo not given) ?
A: inactive

Q: Recorded test outcome, item `CCOC(=O)NC(NC(=O)OCC)C(NC(=O)OCC)NC(=O)OCC`
A: inactive

Q: Outcome? `Cc1ccc(N=Nc2c(N)nn3cc4c(nc23)-c2ccccc2C4)cc1`
A: inactive

Q: Outcome? `CC(C)(C)c1ccc(-n2c3nc(=O)n(-c4ccccc4C(F)(F)F)c(=O)c-3cc3ccccc32)cc1`
A: inactive

Q: Which outcome was assigned to COc1cc2c(c3oc(=O)cc(C)c13)[C@@H](OC(=O)C13CCC(C)(C(=O)O1)C3(C)C)[C@@H](OC(=O)C13CCC(C)(C(=O)O1)C3(C)C)C(C)(C)O2 (stereo not given in full) in this test?
A: active

Q: Fill in: this test's call for Oc1cc(O)c2c(c1)OC(c1ccc(O)c(O)c1)C(O)C2c1c(O)cc(O)c2c1OC(c1ccc(O)c(O)c1)C(O)C2 (stereo not given) is ___
A: inactive

Q: Outcome? `CCOC(=O)C(C)(C)C(OP(OCC)OCC)=C(C)C`
A: inactive

Q: Record lookup: outcome of this test for Cc1cc(C)c2c(c1)CC1(Cc3c(ccc(C)c3C)C1=O)C2=O (stereo not given) ?
A: inactive

Q: Could you please tell me the result logged for CC(C)(C)C1=C(Br)C(O)(C(C)(C)C)OP1(=O)c1ccccc1 (stereo not given) in this assay?
A: inactive

Q: Check the results log: what was the call for CCCC(=O)OC1C(C(O)CO)OC2OC(C)(C)OC21 (stereo not given) ?
A: inactive

Data credit: PubChem BioAssay AID179
